- Tested on: BDF1 mice, P388 leukemia ip, median survival T/C
- Assay explanation: NCI In Vivo Anticancer Drug Screen. Data for tumor model P388 Leukemia (intraperitoneal) in B6D2F1 (BDF1) mice
- Settings: endpoint: median survival time; dose: 100.0 mg/kg/injection; schedule: Q01DX009 (ip); vehicle: saline with Tween-80; higher = longer survival
Toxic doses and inconclusive results are not listed. Residues, ends and D or L forms follow the SMILES beside them. *: point of attachment. For = O=C*
The compounds listed here are annotated with their T/C.

>  <Compound>
COc1cc(C(=O)N(CCCl)N=O)cc(OC)c1OC

>  <T/C>
100 % of control

$$$$
>  <Compound>
Nc1nc(N)c(Cl)c(Nc2cccc(Cl)c2)n1

>  <T/C>
103 % of control

$$$$
>  <Compound>
CCN(/C=C/C=C(C#N)C#N)CC

>  <T/C>
88 % of control

$$$$
>  <Compound>
CCOc1ncc([N+](=O)[O-])c(OCC)n1

>  <T/C>
106 % of control

$$$$
>  <Compound>
CSCCCNC(=O)c1csc(-c2csc(CCNC(=O)C(F)(F)F)n2)n1

>  <T/C>
114 % of control

$$$$
>  <Compound>
Nc1nc(N)c2cc(S(=O)(=O)c3ccc(Cl)c(Cl)c3)ccc2n1

>  <T/C>
91 % of control

$$$$
>  <Compound>
CCOC(=O)C1=C(O)Cc2c(nc3ccc(C)cn3c2=O)C1

>  <T/C>
96 % of control

$$$$
>  <Compound>
OC(Cc1ccnc2ccccc12)C(Cl)(Cl)Cl (configuration not stated)

>  <T/C>
100 % of control

$$$$
>  <Compound>
O=C(Nc1ccc(Cc2ccc(NC(=O)Nc3nc4ccccc4s3)cc2)cc1)Nc1nc2ccccc2s1

>  <T/C>
89 % of control

$$$$
>  <Compound>
CCN=NNc1ccc(C)cc1

>  <T/C>
108 % of control

$$$$
>  <Compound>
O=c1[nH]nc(-c2ccccc2)nc1/C(=N\Nc1ccc([N+](=O)[O-])cc1)c1ccccc1

>  <T/C>
89 % of control

$$$$
>  <Compound>
COc1ccc(C2=C(c3ccccc3)C(c3ccccc3)=C(c3ccc(OC)cc3)C2=O)cc1

>  <T/C>
89 % of control

$$$$
>  <Compound>
CCCCN(C)N=Nc1ccccc1C(N)=O

>  <T/C>
120 % of control

$$$$
>  <Compound>
COc1ccc(C2(C#N)CC2)cc1

>  <T/C>
95 % of control

$$$$
>  <Compound>
CN1/C(=C/C=C/N=C(C#N)C#N)C(C)(C)c2ccccc21

>  <T/C>
96 % of control

$$$$
>  <Compound>
CC(=O)Nc1ccc(C(=O)NN)cc1

>  <T/C>
108 % of control

$$$$
>  <Compound>
Cc1cc2nc[nH]c(=O)n2n1

>  <T/C>
90 % of control

$$$$
>  <Compound>
O=C1c2ccccc2-c2c(Br)c3ccccc3c(=O)n21

>  <T/C>
105 % of control

$$$$
>  <Compound>
CCCCNC(=O)n1nnc2ccccc21

>  <T/C>
106 % of control

$$$$
>  <Compound>
CN(C1=NS(=O)(=O)N=C(N(C)c2ccccc2)O1)c1ccccc1

>  <T/C>
99 % of control

$$$$
>  <Compound>
O=C(Nc1ccccc1)OCc1ccc(OCc2ccccc2)cc1

>  <T/C>
122 % of control

$$$$
>  <Compound>
CCC(=O)Oc1ccc2c(c1)CC[C@@H]1[C@@H]2CC[C@]2(C)C[C@H](OC(=O)CC)C[C@@H]12

>  <T/C>
100 % of control

$$$$
>  <Compound>
CCOC(=O)C1(c2ccccc2)C(=O)Oc2ccccc21 (configuration not stated)

>  <T/C>
108 % of control

$$$$
>  <Compound>
COC(=O)CCSCCC(=O)OC

>  <T/C>
100 % of control

$$$$
>  <Compound>
Cc1cccc(C)c1NC(=S)N1CCC(CCCC2CCN(C(=S)Nc3c(C)cccc3C)CC2)CC1

>  <T/C>
90 % of control

$$$$
>  <Compound>
N#CC1(c2ccc(Cl)cc2)CCC1

>  <T/C>
112 % of control

$$$$
>  <Compound>
CCCCOC(=O)c1ccc(OP(=O)(N(C)C)N(C)C)cc1

>  <T/C>
94 % of control

$$$$
>  <Compound>
CCOC1(c2ccccc2)c2cc(Cl)ccc2NC(=O)N1CC (configuration not stated)

>  <T/C>
98 % of control

$$$$
>  <Compound>
O=C(Nc1ccccc1)C1=C(Nc2ccccc2)CSC1

>  <T/C>
94 % of control

$$$$
>  <Compound>
Nc1ncncc1-c1cccc2ccccc12

>  <T/C>
99 % of control

$$$$
>  <Compound>
CC1(C)C2CCC1(C)C1(C2)OC(CCl)CS1 (configuration not stated)

>  <T/C>
94 % of control

$$$$
>  <Compound>
COc1ccc(-c2cnc(C(N)=O)c(=O)[nH]2)cc1

>  <T/C>
104 % of control

$$$$
>  <Compound>
CCCOC(=O)C1(N)CCCC1

>  <T/C>
100 % of control

$$$$
>  <Compound>
CN(C)CCNCc1c[nH]c(=O)[nH]c1=O

>  <T/C>
94 % of control

$$$$
>  <Compound>
O=C(/C=C/c1ccc(OCc2ccccc2)cc1)c1cccc(Cl)c1

>  <T/C>
96 % of control

$$$$
>  <Compound>
COc1ccc(/C=N/n2c(=O)[nH]nc(C)c2=O)c(OC)c1OC

>  <T/C>
100 % of control

$$$$
>  <Compound>
Cc1nc(C)c(Br)s1

>  <T/C>
107 % of control

$$$$
>  <Compound>
O=C(NC(=O)c1c(F)cccc1F)Nc1nc2ccccc2s1

>  <T/C>
93 % of control

$$$$
>  <Compound>
Cc1ccc(S(=O)(=O)/N=C/NN(C)C)cc1

>  <T/C>
112 % of control

$$$$
>  <Compound>
O=C(O)c1ccc([N+](=O)[O-])s1

>  <T/C>
95 % of control

$$$$
>  <Compound>
COC(=O)C(CC(C)C)NC(=O)C(Cc1ccc(O)cc1)NC=O (stereo not drawn) (For-Tyr-Leu-OMe; configuration not given here)

>  <T/C>
99 % of control

$$$$
>  <Compound>
O=c1nc(Oc2ccccc2)nc2ccc(Cl)nn12

>  <T/C>
116 % of control

$$$$
